test: DUSP6 inhibitors restoring Erk phosphorylation by chemical complementation, primary imaging in DUSP6-transfected HeLa (AID 609); settings: HeLa MKP-3 transfected, phospho-Erk imaging KS statistic; measured here: nuclear c-Myc green intensity z-score; at 10 µM; cells stimulated with TPA for 15 min

MOLECULE: Cc1nc2c(c(=O)n1CC1CCCO1)c1nc3ccccc3nc1n2CC(C)C (centres undefined)
z-score: 1.1
--
MOLECULE: CCOC(=O)CC(=O)CSc1nc(N)c(C#N)c(-c2ccc(Cl)cc2)c1C#N
z-score: -0.959
--
MOLECULE: CC1(C)CC(=O)C2=C(C1)N(Cc1ccco1)C(=O)C2(O)C(F)(F)F (centres undefined)
z-score: -0.87
--
MOLECULE: CCOC(=O)c1ccc(N=Cc2nc(-c3ccccc3)oc2OC(C)=O)cc1
z-score: 0.0892

====

The following compounds are shown together with reported inhibition values.
assay: inhibitors of TNFa-induced NFkB p65 translocation, primary screen, imaging, HUVEC, MLSMR starter and 10KST1 sets (AID 438); settings: HUVEC TNFa-induced p65 nuclear translocation; at 2 µM, stronger effect = higher value, 0% TNFa-plus-vehicle, 100% no-TNFa wells;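 further: compound added about 3h40 before a 20 min TNFalpha stimulation; signal is the nuclear over cytoplasmic p65 intensity ratio per well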
ASSAY_READOUT: inhibition (%)

COMPOUND: CCOC(=O)CC1=C(C(=O)OCC)C(c2ccc(OC)c(OC)c2)C(C#N)=C(N)O1 (stereo not drawn)
NUMERIC_READOUT: -4.3
--
COMPOUND: O=c1[nH]c(CN2CCCCC2)nc2c1C1(CCCCC1)Cc1ccccc1-2
NUMERIC_READOUT: -4.7
--
COMPOUND: CCn1c(SC(C)C(=O)O)nc2sc3c(c2c1=O)CCC3 (stereo not drawn)
NUMERIC_READOUT: -11.3
--
COMPOUND: CCOC(=O)c1ccc2nc(NC(NC(C)=O)(C(=O)OC)C(F)(F)F)sc2c1 (stereo not drawn)
NUMERIC_READOUT: -8.2
--
COMPOUND: CN(C=C1C(=O)CC(C)(C)CC1=O)CCN1CCNCC1
NUMERIC_READOUT: -4.9
--
COMPOUND: CCOC(=O)c1ccc(N2C(=O)CC(Sc3nnc(C)s3)C2=O)cc1 (stereo not drawn)
NUMERIC_READOUT: -1.6
--
COMPOUND: C[C@]12CC[C@@H]3c4ccc(O)cc4CC[C@H]3[C@@H]1CC[C@@H]2OC(=O)CCC(=O)O
NUMERIC_READOUT: 4.6
--
COMPOUND: Cc1c(C)c2cc(Cl)c(O)c(CN3CCN(C)CC3)c2oc1=O
NUMERIC_READOUT: -6.5
--
COMPOUND: COC(=O)c1ccc(Nc2cc(C)nc(-c3ccccc3O)n2)cc1
NUMERIC_READOUT: -2.7
--
COMPOUND: COc1ccc(/C=C/C2=NC(=C\N(C)C)/C(=O)O2)cc1
NUMERIC_READOUT: 0.1
--
COMPOUND: COCCCNc1nc(-c2ccncc2)nc2ccccc12
NUMERIC_READOUT: 1.9
--
COMPOUND: COC(=O)CSc1nc(C)c(C(C)=O)cc1C#N
NUMERIC_READOUT: -8.8
--
COMPOUND: c1coc(-c2nnc3sc(C4CCCCC4)nn23)c1
NUMERIC_READOUT: -0.1
--
COMPOUND: COC(=O)C(NC(C)=O)(Nc1ccc(Br)cc1)C(=O)OC
NUMERIC_READOUT: -1.7
--
COMPOUND: c1ccc(C2Nc3ccccc3-c3nc4ccccc4n32)nc1 (stereo not drawn)
NUMERIC_READOUT: 5.5
--
COMPOUND: Cc1ccc(SCc2[nH]nc3c2C(c2ccc(C)o2)C(C#N)=C(N)O3)cc1 (stereo not drawn)
NUMERIC_READOUT: -2.5
--
COMPOUND: Cc1cc(C)n(S(=O)(=O)Cc2ccccc2)n1
NUMERIC_READOUT: 0.8
--
COMPOUND: CC1CN(C2CCN(C(=O)c3ccccc3Cl)CC2)CC(C)O1 (stereo not drawn)
NUMERIC_READOUT: -0.2
--
COMPOUND: CC(C)NCC(O)COc1cccc2[nH]ccc12 (stereo not drawn)
NUMERIC_READOUT: -11.5
--
COMPOUND: CCOC(=O)C1=C(C)N=C2SC(C)C(=O)N2C1c1ccc(OC(C)=O)c(OC)c1 (stereo not drawn)
NUMERIC_READOUT: -4
--
COMPOUND: CNCCCN1c2ccccc2CCc2ccccc21
NUMERIC_READOUT: -8.9
--
COMPOUND: COc1ccc(CNc2oc(COc3ccccc3Cl)nc2C#N)cc1
NUMERIC_READOUT: -2.2
--
COMPOUND: NC(N)=NC(=O)c1nc(Cl)c(N)nc1N
NUMERIC_READOUT: -4.2
--
COMPOUND: CCOc1cccc(-c2nnc3sc(-c4ccco4)nn23)c1
NUMERIC_READOUT: -1.9
--
COMPOUND: c1ccc(-c2ccc(C(c3ccccc3)n3ccnc3)cc2)cc1 (stereo not drawn)
NUMERIC_READOUT: 2
--
COMPOUND: COC(=O)c1sc(NC(=O)C(C)C)c(C(=O)OC)c1C
NUMERIC_READOUT: -0.5
--
COMPOUND: Cc1nnc(SCC(=O)N2CCC(C(N)=O)CC2)s1
NUMERIC_READOUT: -2.2
--
COMPOUND: NS(=O)(=O)c1cc2c(cc1Cl)NC(C1C[C@H]3C=C[C@@H]1C3)NS2(=O)=O (stereo partly drawn)
NUMERIC_READOUT: -8.9
